Listed compounds paired with reported melting point

Observe how each entry below is paired with its result.
| Compound | Value |
| --- | --- |
| COC(=N[N+](=O)[O-])NCc1ccc(Cl)nc1 | 112 to 113 °C |
| CC1(C)C(=O)N(c2ccc(C#N)c(C(F)(F)F)c2)C(=S)N1CCO | 130 °C |
| CCCCCCCCCCCCCCCCSCC(CO)NC(=O)OC (stereo not given) | 55 to 56 °C |
| CC(C)(C)C(=O)Oc1nc(-c2ccccc2)sc1-c1ccccc1 | 134 to 136 °C |
| CCOC(=O)c1cccc(NC(=O)Oc2ccccc2)c1 | 138 °C |

INPUT: Which measured melting point value corresponds to CCCCCCS(=O)(=O)c1ccc(Oc2ccc(Br)cc2)nc1 ?
OUTPUT: 94 °C

INPUT: Another: COc1ccc2sc(C(N)=O)c(SCc3ccccc3)c2c1
OUTPUT: 151 to 153 °C

INPUT: Another: O=C(O)Cc1ccc(N2CC3=C(CCCC3)C2=O)cc1
OUTPUT: 189 to 191 °C

INPUT: Another: N#CC1=CCN(c2ncccc2F)CC1
OUTPUT: 76 to 77 °C

INPUT: Another: CCOc1ccc(C=O)c(F)c1F
OUTPUT: 70 °C

----------
Assay Endpoint: melting point

Observe how each entry below is paired with its result.
| Chem Smiles | Assay Endpoint | Value |
| --- | --- | --- |
| CCOC(OCC)c1[nH]c(C2CC2)nc(=O)c1Cl | melting point | 109 to 111 °C |
| COc1c(C2=NC(C)(C)CO2)ccc(C2=NC(C)(C)CO2)c1OC | melting point | 84.5 to 85.5 °C |

INPUT: Which measured melting point value corresponds to NC(=O)c1cccc2nc3n(c12)CCCN3c1ccc(Cl)cc1Cl ?
OUTPUT: 198 to 200 °C

----------
Listed compounds paired with reported melting point

Observe how each entry below is paired with its result.
| Compound | melting point |
| --- | --- |
| Cc1ccc(S(=O)(=O)NC(COS(=O)(=O)c2ccc(C)cc2)Cc2ccccc2)cc1 (stereo not drawn) | 95 to 96 °C |
| CC(C)(C)OC(=O)Nc1ccc(O)c(C(=O)O)c1 | > 270 °C |

Now look at this entry.
INPUT: Which measured melting point value corresponds to O=C(O)c1cc(CBr)on1 ?
OUTPUT: 143 to 148 °C

----------
Listed molecules paired with reported melting point

| Molecule | Value |
| --- | --- |
| c1cncc(CC2(Cc3cccnc3)c3ccccc3-c3ccccc32)c1 | 137 to 138 °C |
| Cc1ccc(C2(O)CCC(=O)N2C)cc1S(N)(=O)=O (stereo not drawn) | 124 °C |
| O=C(NCc1ccccc1)NCC(C(=O)O)C(F)(F)F (stereo not drawn) | 183 to 184 °C |

Now look at this entry.
INPUT: Which measured melting point value corresponds to CCNc1cc(Cl)c(C(F)(F)F)cc1[N+](=O)[O-] ?
OUTPUT: 92.5 to 94 °C

----------
Listed compounds paired with reported melting point

| Compound | melting point |
| --- | --- |
| CNN1c2cc(Cl)cc(Cl)c2[C@@H](C(=O)Nc2ccccc2)C[C@@H]1C(=O)O (relative stereo) | 139 to 140 °C |
| CC(C)=NOc1nc(C(F)(F)F)cc(=O)n1-c1cc(Oc2ccccc2[N+](=O)[O-])c(Cl)cc1F | 156 to 159 °C |
| CCOC(=O)N1CCN(C2=Nc3ccc(Br)c4cccc2c34)CC1 | 170 to 174 °C |
| Cc1nn(CC(F)(F)F)c(-c2ccc(F)cc2)c1-c1ccc2c(c1)NC(=O)CO2 | 174 °C |
| COc1cc(OC)nc(NC(=O)NS(=O)(=O)c2ccccc2S(N)(=O)=O)n1 | 192 to 193 °C |
| CS(=O)(=O)Nc1cc2occ(N)c(=O)c2cc1Oc1ccccc1 | 162 to 163 °C |
| CC(C)=CCOc1ccc2cc(C(C)C(=O)O)ccc2c1 (stereo not given) | 97 to 100 °C |
| O=C(O)Cc1c(C(=O)c2ccncc2)[nH]c2cc(Cl)ccc12 | 256 to 257 °C |
| O=C(c1ccc(Cl)cc1)c1ccc([N+](=O)[O-])cc1Cl | 117 to 118 °C |

Now look at this entry.
INPUT: Which measured melting point value corresponds to CCOC(=O)C=Cc1c(OCc2ccc(OCc3nc(-c4ccccc4)oc3C)cc2)ccc2ccccc12 ?
OUTPUT: 73 to 74 °C

----------
Listed compounds paired with reported melting point

Observe how each entry below is paired with its result.
| Compound | melting point |
| --- | --- |
| OC(CCl)COc1ccccc1OCC(O)CCl (stereo unspecified) | 64 to 66 °C |
| Cc1ccc2c(cc(CCCC(=O)O)n2S(=O)(=O)c2ccc3ncsc3c2)n1 | 67 to 70 °C |
| CC(C)Cc1nc(-c2cccnc2)c[nH]c1=O | 195 to 196 °C |

INPUT: Which measured melting point value corresponds to CCn1cc(C(=O)NCc2ccc(Cl)cc2)c(=O)c2cc(C#CCOC(=O)CCC(=O)O)sc21 ?
OUTPUT: 180 to 182 °C

INPUT: Another: CCCCC#Cc1cc(C=CCC(=O)O)ccc1OC
OUTPUT: 102 °C

INPUT: Another: CCOC(=O)N1CCN(c2ccc(Cl)nn2)CC1
OUTPUT: 124 °C

INPUT: Another: CCc1nc2c(C)cc(C)nc2n1Cc1ccc(C(=C(Br)c2nnn[nH]2)c2ccccc2)cc1
OUTPUT: 149 to 151 °C

INPUT: Another: COC(=O)Nc1ccc(CN2CCC(C(O)(c3ccc(OC(F)(F)F)cc3)c3ccc(OC(F)(F)F)cc3)CC2)cc1
OUTPUT: 178 to 182 °C

----------
Listed compounds paired with reported melting point

Observe how each entry below is paired with its result.
| Compound | Assay Endpoint | Value |
| --- | --- | --- |
| O=C(O)CCc1cc2cc(Cl)ccc2n1S(=O)(=O)c1cccc(C(F)(F)F)c1 | melting point | 203 to 206 °C |
| CCCCCCCCCCCCc1cc(C)on1 | melting point | 35 to 38 °C |
| CC(C)Oc1cc(-n2c(=O)[nH]c3c(c2=O)CCC3)c(F)cc1Cl | melting point | 215 to 217 °C |

INPUT: Which measured melting point value corresponds to COc1ccc(CCN2CCC(NC(=O)c3ccccc3)CC2)cc1 ?
OUTPUT: 178 °C

INPUT: Another: CCc1nn2c(Cl)cc(Cl)nc2c1S(=O)(=O)c1ccccc1
OUTPUT: 166 to 167 °C

INPUT: Another: COC(=O)c1sccc1Oc1ncc(OC)c(OC)n1
OUTPUT: 107 to 109 °C

INPUT: Another: O=C(C=Cc1cccnc1)c1ccccc1OCc1ccccc1
OUTPUT: 117 to 119 °C

INPUT: Another: COc1cc(C=C(Br)Br)cc(OC)c1OCc1ccccc1
OUTPUT: 76 to 77 °C

INPUT: Another: CC(C)n1nc(-c2cc(C(=O)O)cnc2-c2ccccc2)ccc1=O
OUTPUT: 221 to 223 °C

INPUT: Another: Cc1ccc(S(=O)(=O)C(CC#Cc2ccc(Cl)cc2)C(=O)O)cc1 (centres undefined)
OUTPUT: 154 to 157 °C

INPUT: Another: CCc1c(C(C)C)nc(C(C)C)c(CO)c1-c1ccc(F)cc1
OUTPUT: 126 to 129 °C

----------
Assay Endpoint: melting point

Observe how each entry below is paired with its result.
| Compound | Value |
| --- | --- |
| CCC(C)(Oc1ccc(CNc2ccc(Cl)cc2)cc1)C(=O)O (centres undefined) | 152 to 153 °C |
| Cc1cc(-c2nc3cccnn3c2-c2ccnc(NC(=O)c3ccc4ncccc4c3)c2)ccc1F | 210 to 211 °C |
| Cc1n[nH]c2cc(-c3nn(C(C)c4oc5ccc(F)cc5c(=O)c4-c4ccccc4)c4ncnc(N)c34)ccc12 (centres undefined) | 253 to 255 °C |
| O=C(Nc1ccc(C(=O)N2Cc3ccccc3Oc3ccccc32)c(Cl)c1)c1ccccc1-c1ccccc1 | 145 to 188 °C |
| CC(=O)Nc1c(I)c(C(=O)O)c(I)c(C(=O)NCC(=O)O)c1I | 201 to 202 °C |

INPUT: Which measured melting point value corresponds to COc1ccc(SC(C(=O)O)c2ccccc2)c(Cl)c1Cl (centres undefined) ?
OUTPUT: 180 to 182 °C

INPUT: Another: CSCCCOc1nc(-c2ccc(F)cc2C)c2ccc(=O)n(-c3c(F)cccc3F)c2n1
OUTPUT: 127 to 128 °C

INPUT: Another: CCOC(=O)c1c(-c2ccccc2)c2cc(Cl)ccc2n1CC#N
OUTPUT: 119 to 120 °C

INPUT: Another: CCOC(=O)c1c(S(=O)(=O)Cl)nn2c(C)cc(C)nc12
OUTPUT: 128 to 130 °C

INPUT: Another: O=C1CO[C@@H]2CCCC[C@H]2O1 (relative stereo)
OUTPUT: 20 to 22 °C

// provenance: a melting point compilation (Tetko et al.; mined from patent text by program, amines drawn as free bases though some values may be those of a salt)
